measurementNotes: thallium flux activation in parental CHO cells, counter-screen for KCNQ1 potentiator project (AID 493006);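 on activation: fluorescence ratio of max minus min over baseline after K+ and Tl+ depolarization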
testParameters: parental CHO-K1 cells, FluxOR thallium flux, at 10 µM; active compounds read high
Active and inactive are the calls of the source.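 How the source made its calls: active means duplicate-averaged activation above buffer control mean plus 5 SD of those controls; inactive means the rest.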
measurementLabel: activation

1) O=C(O)C(c1ccccc1)N1C(=O)/C(=C\c2ccc(-c3ccc(Br)cc3)o2)SC1=S (stereo unspecified)	inactive
2) C=CCn1c(=S)[nH]c2sc3c(c2c1=O)CCC3	364% (active)
3) Cc1cccc(NC(=S)NNC(=O)c2csc3c2CCC(C)C3)c1 (stereo unspecified)	193% (active)
4) COC(=O)C1=C(C)Nc2nc(-c3ccccc3)nn2C1c1ccc(C)o1 (stereo unspecified)	inactive
5) COC(=O)C1CCN(C(=O)Nc2ccc(OC)cc2)CC1	144% (active)

Could you now consider this next compound?
Ask | Consider the compound shown here: O=C(CC1C(=O)NCCN1Cc1cccc(F)c1)NCCCN1CCCC1=O (stereo unspecified) What is its recorded activation?
Reply | inactive

====

studySystem: Potassium voltage-gated channel subfamily KQT member 1 (Homo sapiens)
measurementNotes: KCNQ1 potassium channel potentiators, confirmation, FluxOR thallium flux, CHO cells, duplicates (AID 493007);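 on outcome: cells depolarized by a potassium plus thallium sulfate stimulus after compound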
testParameters: KCNQ1 cell line, FluxOR thallium flux fluorescence, at 10 µM, % of reference activator effect, buffer zero
Calls of active or inactive are those of the source.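 How the source made its calls: active means potentiation averaged over duplicate wells exceeding buffer-only control mean by more than 3 SD; inactive means the rest.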
Result category, one only: True = active, False = inactive

Ask | Dear colleague, could you share the recorded outcome for CCCc1nc(SCC(=O)Nc2cc(Cl)ccc2OC)c2c(=O)n(C)c(=O)n(C)c2n1 when you have a moment?
Reply | False

Ask | Dear colleague, could you share the recorded outcome for COc1ccc(C2c3ccc4ccccc4c3Oc3ncn(CCCO)c(=N)c32)cc1OC (stereo not given) when you have a moment?
Reply | False

Ask | Dear colleague, could you share the recorded outcome for COC(=O)C1=NN(C(=O)c2ccc(Cl)cc2)C(O)(c2ccccc2)C1 (stereo not given) when you have a moment?
Reply | True

Ask | Dear colleague, could you share the recorded outcome for Cc1nc2ccccc2c(N)c1C(=O)/C=C/c1ccccc1 when you have a moment?
Reply | False

Ask | Dear colleague, could you share the recorded outcome for C=CCn1c(O)c(N=NC(=S)Nc2cccc(OC)c2)c2ccccc21 when you have a moment?
Reply | True

Ask | Dear colleague, could you share the recorded outcome for COc1ccc(OC)c(S(=O)(=O)CC(O)CS(=O)(=O)c2ccccc2)c1 (stereo not given) when you have a moment?
Reply | False

Ask | Dear colleague, could you share the recorded outcome for O=C(Nc1ccc(Cl)cn1)c1cccc(S(=O)(=O)N2CCOCC2)c1 when you have a moment?
Reply | False

Ask | Dear colleague, could you share the recorded outcome for COc1ccc(C(=O)c2cc([N+](=O)[O-])ccc2N2CCOCC2)cc1 when you have a moment?
Reply | False

Ask | Dear colleague, could you share the recorded outcome for Cc1ccc(C(=O)OCC(=O)Nc2sc3c(c2C#N)CCCC3)cc1NC(=O)c1ccco1 when you have a moment?
Reply | False

Ask | Dear colleague, could you share the recorded outcome for CCC(Cc1ccccc1)n1c(=S)[nH]c2ccccc2c1=O (stereo not given) when you have a moment?
Reply | True

====

System: TRPC4 (mouse), co-expressed with 5HT1a in HEK293
measurementNotes: calcium flux potentiators in TRPC4/5HT1a cells, confirmation, counter-screen for TRPC4 potentiator project, cell-based, second counter screen, HEK293 TRPC4/5HT1a, Fluo-4 (AID 434979)
testParameters: Fluo-4 calcium flux, at 10 µM, serotonin added at its EC20 dose
Activity calls are given as the source filed them.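 The calls were made as follows: active = signal rise over 3 SD above mean of control wells given weak agonist, in both repeats and first screen; inactive = the rest.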
Result category, one only: active, inactive

1. Cc1csc2c(N3CCN(C(=O)NC(C)(C)C)CC3)ncnc12	inactive

Ask | Dear colleague, could you share the recorded outcome for CC(C)(C)c1cc(Cl)ccc1OCCn1ccnc1 when you have a moment?
Reply | active

Ask | Dear colleague, could you share the recorded outcome for Cc1cc(Cl)cc(C)c1OCCCCn1ccnc1 when you have a moment?
Reply | inactive

Ask | Dear colleague, could you share the recorded outcome for CCn1c(N2CCN(Cc3ccc([N+](=O)[O-])cc3)CC2)nc2ccccc21 when you have a moment?
Reply | active

Ask | Dear colleague, could you share the recorded outcome for COc1ccc(C(=O)NNC(=S)NC(=O)c2ccccc2)cc1 when you have a moment?
Reply | inactive

Ask | Dear colleague, could you share the recorded outcome for CCOC(=O)C1(CC2CC2)CCN(Cc2ccc3cccc(F)c3n2)CC1 when you have a moment?
Reply | inactive

Ask | Dear colleague, could you share the recorded outcome for CCc1nc(NCCc2ccccn2)c2nnn(Cc3ccccc3F)c2n1 when you have a moment?
Reply | inactive

Ask | Dear colleague, could you share the recorded outcome for Cc1cccc(NC(=S)NCC(c2cccnc2)N(C)C)c1C (centres undefined) when you have a moment?
Reply | inactive

Ask | Dear colleague, could you share the recorded outcome for CN(C)CCCN(C(=O)c1ccc(S(=O)(=O)N(C)C)cc1)c1nc2ccc(F)cc2s1 when you have a moment?
Reply | inactive

Ask | Dear colleague, could you share the recorded outcome for FC(F)(F)c1cnc(N2CCCN(C(=S)Nc3ccccc3)CC2)c(Cl)c1 when you have a moment?
Reply | inactive

Ask | Dear colleague, could you share the recorded outcome for Fc1ccc(C(c2nnnn2Cc2cccs2)N2CCN(C3CCCCC3)CC2)cc1 (centres undefined) when you have a moment?
Reply | inactive

Ask | Dear colleague, could you share the recorded outcome for CN1C2C=C(N(CCc3c[nH]c4ccccc34)C(=O)c3ccc(Cl)cc3)CC1CC2 (centres undefined) when you have a moment?
Reply | inactive

Ask | Dear colleague, could you share the recorded outcome for COc1ccc(C(CNC(=O)C(C)c2ccc3cc(OC)ccc3c2)N(C)C)cc1 (centres undefined) when you have a moment?
Reply | inactive

Ask | Dear colleague, could you share the recorded outcome for Cc1cc(NCc2ccccc2)nc2ccccc12 when you have a moment?
Reply | inactive

Ask | Dear colleague, could you share the recorded outcome for CN(C)CCCN(C(=O)c1ccc(C(=O)c2ccccc2)cc1)c1nc2ccc(F)cc2s1 when you have a moment?
Reply | inactive
